I'd be grateful if you could share measured Maximum absorption wavelength (λmax) for these entries.
ASSAY METHOD TEXT: Visible near-infrared absorption spectrum in a tetrahydrofuran solution
Format: physicochemical
One number for each entry, in nm.

Past entries and their recorded results:
{"COMPOUND": "CCCCc1ccc(C2=CC(=CC3=C([O-])/C(=C/c4cc(-c5ccc(CCCC)cc5)[s+]c(-c5ccc(CCCC)cc5)c4)C3=O)C=C(c3ccc(CCCC)cc3)S2)cc1", "REPORTED MEASUREMENT": 910}
{"COMPOUND": "CCCCCCc1ccc(C2=CC(=CC3=C([O-])/C(=C/c4cc(-c5ccc(CCCCCC)cc5)[s+]c(-c5ccc(CCCCCC)cc5)c4)C3=O)C=C(c3ccc(CCCCCC)cc3)S2)cc1 [II-3, reference compound]", "REPORTED MEASUREMENT": 910}
{"COMPOUND": "CC(C)(C)c1ccc(C2=CC(=CC3=C([O-])/C(=C/c4cc(-c5ccc(C(C)(C)C)cc5)[s+]c(-c5ccc(C(C)(C)C)cc5)c4)C3=O)C=C(c3ccc(C(C)(C)C)cc3)S2)cc1", "REPORTED MEASUREMENT": 908}

Parameter requested: Maximum absorption wavelength (λmax). Apply to each item below.
1. CCc1ccc(C2=CC(=CC3=C([O-])/C(=C/c4cc(-c5ccc(CC)cc5)[s+]c(-c5ccc(CC)cc5)c4)C3=O)C=C(c3ccc(CC)cc3)S2)cc1
2. Cc1ccc(C2=CC(=CC3=C([O-])/C(=C/c4cc(-c5ccc(C)cc5)[s+]c(-c5ccc(C)cc5)c4)C3=O)C=C(c3ccc(C)cc3)S2)cc1 [II-2, reference compound]

### Response
1: 908; 2: 905

### Prompt Entry O=C1C(C=C2C=C(c3ccccc3)SC(c3ccccc3)=C2)=C([O-])/C1=C/c1cc(-c2ccccc2)[s+]c(-c2ccccc2)c1 [II-1, reference compound] has what Maximum absorption wavelength (λmax)?
### Response 901
